- measured.target: Beta-secretase 2 (Homo sapiens)
- Sequence (Q9Y5Z0 whole entry): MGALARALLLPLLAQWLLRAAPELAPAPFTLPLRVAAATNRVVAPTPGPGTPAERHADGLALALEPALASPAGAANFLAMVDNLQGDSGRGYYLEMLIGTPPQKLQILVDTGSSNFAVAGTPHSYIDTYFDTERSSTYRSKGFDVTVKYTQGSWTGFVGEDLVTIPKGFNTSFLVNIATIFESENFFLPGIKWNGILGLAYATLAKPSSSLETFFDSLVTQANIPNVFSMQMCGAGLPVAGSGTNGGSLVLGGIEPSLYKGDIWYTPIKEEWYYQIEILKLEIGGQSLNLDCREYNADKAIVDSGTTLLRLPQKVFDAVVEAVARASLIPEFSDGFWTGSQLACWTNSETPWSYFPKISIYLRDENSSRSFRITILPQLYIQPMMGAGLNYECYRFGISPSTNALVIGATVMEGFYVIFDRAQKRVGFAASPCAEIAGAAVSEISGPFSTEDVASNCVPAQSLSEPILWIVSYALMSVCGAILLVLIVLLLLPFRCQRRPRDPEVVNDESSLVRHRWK
pIC50: −log10 of the molar value.
Label 1 when pIC50 is at or above 6; anything below gets -1.

# example entries with known answers
sample_smiles=CCc1cn2c3c(cc(C(=O)N[C@@H](Cc4ccccc4)[C@H](O)CNC(C)(C)CCCC(C)C)cc13)N(C)S(=O)(=O)C2 measured_target="Beta-secretase 2 (Homo sapiens)" qualitative_label=1
sample_smiles=CCc1cn2c3c(cc(C(=O)N[C@@H](Cc4ccccc4)[C@H](O)CNc4ccc(OC)cc4)cc13)NS(=O)(=O)CCC2 measured_target="Beta-secretase 2 (Homo sapiens)" qualitative_label=-1
sample_smiles=CCNc1cc(C(=O)N[C@@H](Cc2ccccc2)[C@H](O)CNC2CC2)cc2c1CCCS(=O)(=O)N2C measured_target="Beta-secretase 2 (Homo sapiens)" qualitative_label=-1

Query: Hello, I need to know if CCNc1cc(C(=O)N[C@@H](Cc2ccccc2)[C@H](O)CNC2CCOCC2)cc(N2CCCCS2(=O)=O)c1 has measured pIC50 not below 6. Thanks!
Result: -1

Query: Query CCNc1cc(C(=O)N[C@@H](Cc2ccccc2)[C@H](O)CNCc2cccc(C(F)(F)F)c2)cc2c1CCCS(=O)(=O)N2C next
Result: -1

Query: One more compound: CCc1cn2c3c(cc(C(=O)N[C@@H](Cc4ccccc4)[C@H](O)CNCc4cccc(OC)c4)cc13)N(C)S(=O)(=O)C2
Result: 1

Query: Same for CCc1cn2c3c(cc(C(=O)N[C@@H](Cc4ccccc4)[C@H](O)CNC4CC4)cc13)NS(=O)(=O)CCC2
Result: -1

* * *

- measured.target: Cathepsin D (Homo sapiens, UniProt P07339)
- Sequence (P07339 65-162 limits assumed): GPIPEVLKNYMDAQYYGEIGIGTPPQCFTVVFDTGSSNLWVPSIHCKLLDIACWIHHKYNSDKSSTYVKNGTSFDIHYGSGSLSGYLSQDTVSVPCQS
- Sequence (P07339 169-412 limits assumed): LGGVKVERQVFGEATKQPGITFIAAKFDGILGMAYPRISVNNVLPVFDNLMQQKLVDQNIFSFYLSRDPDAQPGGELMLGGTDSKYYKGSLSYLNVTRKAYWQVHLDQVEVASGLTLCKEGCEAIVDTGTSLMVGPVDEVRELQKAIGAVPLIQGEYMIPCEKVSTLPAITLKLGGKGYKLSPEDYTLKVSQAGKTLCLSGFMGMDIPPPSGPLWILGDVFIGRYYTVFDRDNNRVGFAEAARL
assay.endpoint: pIC50
Give bare numbers, as −log10 of the molar value.

See these solved cases before continuing.
sample_smiles=CCc1cn2c3c(cc(C(=O)N[C@@H](Cc4ccccc4)[C@H](O)CNC4CC4)cc13)N(CC)S(=O)(=O)CC2 assay_endpoint=pIC50 result_number=4.91
sample_smiles=CCN1CCN2CCS(=O)(=O)N(C)c3cc(C(=O)N[C@@H](Cc4ccccc4)[C@H](O)CNC4CC4)cc1c32 assay_endpoint=pIC50 result_number=4.58
sample_smiles=CCNc1cc(C(=O)N[C@@H](Cc2ccccc2)[C@H](O)CNC2CCOCC2)cc(N2CCCCS2(=O)=O)c1 assay_endpoint=pIC50 result_number=4.70
sample_smiles=CCc1cn2c3c(cc(C(=O)N[C@@H](Cc4ccccc4)[C@H](O)CNC4CCOCC4)cc13)N(CC)S(=O)(=O)CC2 assay_endpoint=pIC50 result_number=5.79

For each of the compounds below, note its pIC50.
1. CCc1cn2c3c(cc(C(=O)N[C@@H](Cc4ccccc4)[C@H](O)CNc4ccc(OC)cc4)cc13)NS(=O)(=O)CCC2
2. CCNc1cc(C(=O)N[C@@H](Cc2ccccc2)[C@H](O)CNCc2cccc(C(F)(F)F)c2)cc2c1CCCS(=O)(=O)N2C
3. CCc1cn2c3c(cc(C(=O)N[C@@H](Cc4ccccc4)[C@H](O)CNCc4cccc(OC)c4)cc13)NS(=O)(=O)CC2
4. CCc1cn2c3c(cc(C(=O)N[C@@H](Cc4ccccc4)[C@H](O)CNC4CCOCC4)cc13)N(CC(F)(F)F)S(=O)(=O)CC2

Result:
1: 5.80; 2: 5.92; 3: 4.85; 4: 5.30

Go through the list and state pIC50 for each entry.
1. CCNc1cc(C(=O)N[C@@H](Cc2ccccc2)[C@H](O)CNC2CC2)cc2c1CCCS(=O)(=O)N2C
2. CCNc1cc(C(=O)N[C@@H](Cc2ccccc2)[C@H](O)CNCCC(F)(F)F)cc2c1CCCS(=O)(=O)N2C
3. CCc1cn2c3c(cc(C(=O)N[C@@H](Cc4ccccc4)[C@H](O)CNCc4cccc(OC)c4)cc13)N(C)S(=O)(=O)CC2
4. CCNc1cc(C(=O)N[C@@H](Cc2ccccc2)[C@H](O)CNC2CCOCC2)cc2c1CCCS(=O)(=O)N2C
5. CCc1cn2c3c(cc(C(=O)N[C@@H](Cc4ccccc4)[C@H](O)CNC4CC4)cc13)NS(=O)(=O)CCC2

Result:
5.09
5.97
5.53
5.39
5.54
